# test_method_notes: qHTS for Inhibitors of the Functional Ribonucleoprotein Complex (vRNP) of Lassa (LASV) Arenavirus: LASV Primary Screen - GLuc reporter signal (AID 1347082); note: nearly all actives have a fitted effect of over 60% in size
# assay_conditions: LASV minigenome vRNP, Gaussia luciferase reporter; series mostly up to 57.5 µM
Results filed as inconclusive are left out. Activity calls are given as the source filed them. Calls come from the whole dose curve; tested in HEK293 reporter line.
Respond only with the outcome that fits, drawn from active, inactive

Past entries and their recorded results:
* CC(C)c1nn(-c2c(Cl)cccc2Cl)c2nc(Cc3ccc(OCCO)cc3)[nH]c(=O)c12 | active
* CC1=CC(=O)[C@H]2C[C@@H]1C2(C)C | inactive
* NC(=O)c1noc([C@H](CCCC2CCCCC2)CC(=O)NO)n1 | inactive
* CCOC(=O)N1c2ccc(C(F)(F)F)cc2[C@@H](N(Cc2cc(C(F)(F)F)cc(C(F)(F)F)c2)C(=O)OC)C[C@H]1CC | inactive
* C[C@]12CCC3c4ccc(O)cc4CCC3C1CCC2=O (stereo partly specified) | inactive

Ask | Hi team, can someone confirm the assay call for COC(=O)[C@@H]1CC2=CC(=O)CC[C@]2(C)[C@@]23O[C@@H]2C[C@@]2(C)[C@H](CC[C@@]24CCC(=O)O4)[C@@H]13 ?
Reply | inactive

Ask | Tell me the recorded outcome of this test for Cc1nn(-c2ccccc2)c(C)c1/C=N/N1CCN(Cc2ccccc2)CC1 .
Reply | inactive

Ask | Please share the test call associated with CN(C1CCc2c(c3ccccc3n2CC(=O)O)C1)S(=O)(=O)c1ccc(F)cc1 (stereo unspecified) .
Reply | inactive

Ask | Call for entry COc1c(N2C[C@@H]3CCCN[C@H]3C2)c(F)cc2c(=O)c(C(=O)O)cn(C3CC3)c12 :
Reply | inactive

Ask | In this assay, the call recorded for CCCCOC(=O)C(C)OC(=O)CCC (stereo unspecified) was what?
Reply | inactive

Ask | Which result was noted for this compound in the test: Cc1cc(Cl)ccc1OCCCC(=O)NO
Reply | inactive

Ask | Please indicate how the test categorized C[C@H]1O[C@@H](n2cc(F)c(=O)[nH]c2=O)[C@H](O)[C@H]1O .
Reply | inactive

Ask | // outcome(item) with item = CC1(C)CCC[C@@](C)([C@H]2CC[C@]3(C)[C@@H]2[C@H](O)CC2[C@@]4(C)CC[C@H](O)C(C)(C)[C@@H]4[C@@H](O)C[C@]23C)O1 (stereo partly specified)
Reply | inactive
